- ASSAY INFO: yeast display, Sf9 membrane polyspecificity reagent, FACS + sequencing; frameworks hold sequencing errors
MEASUREMENT NAME: polyreactivity (PSR sort gate)

1) QVQLVESGGGIVQAGGSLRLSCAASGLILYWYAMGLYRQAPGKERYLVAAISISGGSTYYADSVKGRFTISRDNAKNTVYLQMNSLKPEDTAVYYCAAVYFYSWEGDGDYWGQGTQVTVSS | low polyreactivity
2) QVQLVESGGGLVQAGGSLRLSCAASGFILRAYAMGWYRQAPGKERELVAAITSATSTNYADSVKGRFTISRDNAKNTVYLQMNSLKPEDTAVYYCAADGGGGEFSYDSWGQGTQVTVSS | low polyreactivity

The measured values listed here are drawn from the nanobody polyreactivity screen of Harvey et al. (2022).
